tested on: Human immunodeficiency virus 1; experiment: Antiviral activity against HIV1 harboring reverse transcriptase Y181C mutant infected in human MT4 cells; format: functional, organism-based; conditions: Human immunodeficiency virus 1, MT4
measuredParameter: pEC50
Numbers only, as −log10 of the molar value.

Problem: Provide value of pEC50 for this record tested with Human immunodeficiency virus 1: Cc1cc(C)cc(Oc2c(CSCc3ccco3)c(C)[nH]c(=O)c2I)c1
Result: 8.30

* * *

experiment: Selectivity index, ratio of CC50 for human MT4 cells to EC50 for HIV2 ROD; format: toxicity, cell-based; details: read-out: Ratio CC50/EC50
For each entry below, report its selectivity ratio value.

COc1cc(Oc2c(C)cccc2C)cc(Nc2ccc(C#N)cc2)n1 :: < 1
Cc1cc(C)c(Oc2cc(Nc3ccc(C#N)cc3)[nH]c(=O)c2Br)c(C)c1 :: 1

--- query ---
Problem: Any idea what selectivity ratio was measured for Cc1cc(C)c(Oc2cc(Nc3ccc([N+](=O)[O-])cc3)[nH]c(=O)c2)c(C)c1 ?
Result: < 1

* * *

assay: Selectivity index, ratio of CC50 for human MT4 cells to EC50 for HIV1 3B; format: toxicity, cell-based; settings: read-out: Ratio CC50/EC50
measuredParameter: selectivity ratio

// known answers, use as guide
Cc1cc(C#N)cc(C)c1Oc1cc(Nc2ccc(C#N)cc2)[nH]c(=O)c1Br :: > 244
CC(C)Nc1cccnc1N1CCN(C(=O)c2cc3cc(NS(C)(=O)=O)ccc3[nH]2)CC1 [DELAVIRDINE] :: > 40

Batch: selectivity ratio for all items listed.
1. COc1cc(Oc2c(C)cccc2C)cc(Nc2ccc(C#N)cc2)n1
2. Cc1cc(C)cc(Oc2cc(Nc3ccc(C#N)cc3)[nH]c(=O)c2Br)c1
3. Cc1cc(C)c(Oc2cc(Nc3ccc(C#N)cc3)[nH]c(=O)c2Br)c(C)c1

Result:
1. < 1
2. < 1
3. > 9

* * *

For each entry below, report its selectivity ratio value.
test: Selectivity index, ratio of CC50 for human MT4 cells to EC50 for HIV1 3B; assay type: toxicity, cell-based; conditions: read-out: Ratio CC50/EC50
Numbers only.

Cc1cccc(C)c1Oc1cc(Nc2ccc(C#N)cc2)[nH]c(=O)c1Br :: 17
Cc1cccc(C)c1Oc1cc(Nc2ccc(C#N)cc2)[nH]c(=O)c1Cl :: 12

Batch: selectivity ratio for all items listed.
1. Cc1cc(C#N)cc(C)c1Oc1cc(Nc2ccc(C#N)cc2)[nH]c(=O)c1
2. Cc1cccc(C)c1Oc1cc(Nc2ccc(C#N)cc2)[nH]c(=O)c1

Result:
1: 166; 2: 26

* * *

For each entry below, report its pEC50 value.
system: Human immunodeficiency virus 1; test: Antiviral activity against HIV1 harboring reverse transcriptase K101N mutant infected in human MT4 cells; assay type: functional, organism-based; settings: Human immunodeficiency virus 1, MT4
Give bare numbers, as −log10 of the molar value.

Cc1cc(/C=C/C#N)cc(C)c1Nc1ccnc(Nc2ccc(C#N)cc2)n1 [RILPIVIRINE] :: 9.52
Cc1cc(C#N)cc(C)c1Oc1nc(Nc2ccc(C#N)cc2)nc(N)c1Br [ETRAVIRINE] :: 8.92

--- query ---
Problem: Any idea what pEC50 was measured for Cc1cc(C)cc(Oc2c(CSCc3ccco3)c(C)[nH]c(=O)c2I)c1 ?
Result: 9.00

* * *

assay: Cytotoxicity against human MT4 cells after 5 days by MTT assay; assay type: cell-based
measuredParameter: CC50 at 120 h (µM)
Answers are plain numbers, in µM.

Batch: CC50 at 120 h for all items listed.
1. Cc1cccc(C)c1Oc1cc(Nc2ccc(C#N)cc2)[nH]c(=O)c1
2. Cc1ccc(Nc2cc(Oc3c(C)cc(C)cc3C)cc(=O)[nH]2)cc1
3. Cc1cc(C)cc(Oc2cc(Nc3ccc(C#N)cc3)[nH]c(=O)c2Br)c1
4. Cc1cccc(C)c1Oc1cc(Nc2ccc(C#N)cc2)[nH]c(=O)c1I
5. COc1cc(Oc2c(C)cccc2C)cc(Nc2ccc(C#N)cc2)n1
6. Cc1cc(C)c(Oc2cc(Nc3ccc(C#N)cc3)[nH]c(=O)c2I)c(C)c1
7. COc1cc(Oc2c(C)cc(C)cc2C)cc(Nc2ccc(C#N)cc2)n1
8. Cc1cc(C#N)cc(C)c1Oc1cc(Nc2ccc(C#N)cc2)[nH]c(=O)c1

Result:
1: 36; 2: 37; 3: 19; 4: 28; 5: 8.5; 6: 34; 7: 29; 8: 25

* * *

For each entry below, report its selectivity ratio value.
test: Selectivity index, ratio of CC50 for human MT4 cells to EC50 for HIV2 ROD; type: toxicity, cell-based; details: read-out: Ratio CC50/EC50

Cc1cc(C)cc(Oc2cc(Nc3ccc(C#N)cc3)[nH]c(=O)c2)c1 :: < 1
Cc1cc(C#N)cc(C)c1Oc1cc(Nc2ccc(C#N)cc2)[nH]c(=O)c1Cl :: 1
Cc1ccc(Nc2cc(Oc3c(C)cc(C)cc3C)cc(=O)[nH]2)cc1 :: < 1
Cc1cc(C)c(Oc2cc(Nc3ccc(C#N)cc3)[nH]c(=O)c2)c(C)c1 :: < 1
Cc1cc(C#N)cc(C)c1Oc1cc(Nc2ccc(C#N)cc2)[nH]c(=O)c1I :: 1
COc1cc(Oc2c(C)cc(C)cc2C)cc(Nc2ccc(C)cc2)n1 :: < 1
Cc1cc(C#N)cc(C)c1Oc1cc(Nc2ccc(C#N)cc2)[nH]c(=O)c1 :: < 1
Cc1cccc(C)c1Oc1cc(Nc2ccc(C#N)cc2)[nH]c(=O)c1Cl :: < 1
Cc1cc(C)cc(Oc2cc(Nc3ccc(C#N)cc3)[nH]c(=O)c2Cl)c1 :: < 1
COc1cc(Oc2c(C)cc(C#N)cc2C)cc(Nc2ccc(C#N)cc2)n1 :: ≤ 1

Batch: selectivity ratio for all items listed.
1. Cc1cccc(C)c1Oc1cc(Nc2ccc(C#N)cc2)[nH]c(=O)c1Br
2. Cc1cc(C#N)cc(C)c1Oc1cc(Nc2ccc(C#N)cc2)[nH]c(=O)c1Br

Result:
1. < 1
2. 1

* * *

test: Selectivity index, ratio of CC50 for human MT4 cells to EC50 for HIV1 RES056; assay type: toxicity, cell-based; conditions: read-out: Ratio CC50/EC50
measuredParameter: selectivity ratio

Cc1cc(C#N)cc(C)c1Oc1cc(Nc2ccc(C#N)cc2)[nH]c(=O)c1Br :: 1
Cc1ccc(Nc2cc(Oc3c(C)cc(C)cc3C)cc(=O)[nH]2)cc1 :: < 1
Cc1cc(C#N)cc(C)c1Oc1cc(Nc2ccc(C#N)cc2)[nH]c(=O)c1 :: < 1
Cc1cc(C#N)cc(C)c1Oc1cc(Nc2ccc(C#N)cc2)[nH]c(=O)c1I :: 1

Batch: selectivity ratio for all items listed.
1. Cc1cccc(C)c1Oc1cc(Nc2ccc(C#N)cc2)[nH]c(=O)c1Cl
2. Cc1cc(C)c(Oc2cc(Nc3ccc(C#N)cc3)[nH]c(=O)c2)c(C)c1
3. Cc1cc(C)c(Oc2cc(Nc3ccc(C#N)cc3)[nH]c(=O)c2I)c(C)c1
4. Cc1cc(C)c(Oc2cc(Nc3ccc(C#N)cc3)[nH]c(=O)c2Br)c(C)c1
5. Cc1cc(C)c(Oc2cc(Nc3ccc(C#N)cc3)[nH]c(=O)c2Cl)c(C)c1
6. Cc1cc(C)c(Oc2cc(Nc3ccc([N+](=O)[O-])cc3)[nH]c(=O)c2)c(C)c1
7. COc1cc(Oc2c(C)cc(C#N)cc2C)cc(Nc2ccc(C#N)cc2)n1
8. COc1cc(Oc2c(C)cc(C)cc2C)cc(Nc2ccc(C#N)cc2)n1

Result:
1: < 1; 2: < 1; 3: < 1; 4: 1; 5: 1; 6: < 1; 7: 1; 8: < 1

Batch: selectivity ratio for all items listed.
1. Cc1cccc(C)c1Oc1cc(Nc2ccc(C#N)cc2)[nH]c(=O)c1I
2. Cc1cccc(C)c1Oc1cc(Nc2ccc(C#N)cc2)[nH]c(=O)c1Br
3. Cc1cc(C#N)cc(C)c1Oc1cc(Nc2ccc(C#N)cc2)[nH]c(=O)c1Cl
4. Cc1cccc(C)c1Oc1cc(Nc2ccc(C#N)cc2)[nH]c(=O)c1

Result:
["< 1", "< 1", 1, "< 1"]

* * *

For each entry below, report its selectivity ratio value.
assay: Selectivity index, ratio of CC50 for human MT4 cells to EC50 for HIV1 3B; assay type: toxicity, cell-based; conditions: read-out: Ratio CC50/EC50
Answers are plain numbers.

// known answers, use as guide
Cc1ccc(Nc2cc(Oc3c(C)cc(C)cc3C)cc(=O)[nH]2)cc1 :: 26
Cc1cc(C)c(Oc2cc(Nc3ccc([N+](=O)[O-])cc3)[nH]c(=O)c2)c(C)c1 :: 19

Batch: selectivity ratio for all items listed.
1. Cc1cccc(C)c1Oc1cc(Nc2ccc(C#N)cc2)[nH]c(=O)c1I
2. Cc1cc(C)c(Oc2cc(Nc3ccc(C#N)cc3)[nH]c(=O)c2)c(C)c1

Result:
[16, 87]
